system_name: Voltage-gated potassium channel subunit beta-2 (Rattus norvegicus)
assay: inhibitors of rat Kvbeta2 reductase activity – biochemical, NADPH fluorescence, primary screen (AID 622);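 further: slope of raw intensity against log time taken from 70 to 1610 s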
assay_setup: recombinant KvBeta, 4-cyanobenzaldehyde reduction, at 10 µM, stronger effect = higher value
Active and inactive are the calls of the source.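 How the source made its calls: active means fluorescence slope higher than the sample average by over 3 SD (cut at about -0.22 in these data, passing the limit was not always enough); inactive means the rest.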
Item-by-item account of fluorescence slope

These solved cases illustrate the format of a correct answer.
compound	fluorescence slope
COCCn1c(SCC(=O)c2ccccc2)nc2c(c1=O)SC(C)C2 (stereo unspecified)	-0.45 (inactive)
CCOC(=O)c1c(NC(=O)c2ccoc2C)sc2c1CCC2	-0.407 (inactive)
COc1ccc(C(=O)NCC(=O)n2nc(C)cc2C)cc1OC	-0.415 (inactive)

*Q* I am curious: what fluorescence slope value has been reported for CCOc1ccc(OCc2ccc(C(=O)Nc3cccc(C)n3)o2)cc1 ?
*A* -0.557 (inactive)

*Q* Ok, now CCn1cc(C(=O)N2CCN(C(=O)c3ccco3)CC2)c2cc(OC)c(OC)cc2c1=O
*A* -0.515 (inactive)

*Q* Can you check COCCNC(=O)C(C)OC(=O)c1nsc(Cl)c1Cl (stereo unspecified) next?
*A* -0.317 (inactive)

====

Reported inhibition values follow for various compounds
assay: loss of swimming-algae plug formation – whole organism, Chlamydomonas reinhardtii, WT vs cilia-less mutant, absorbance, 96-well, primary screen (AID 463189);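 further: 0% = wild type cc124 cells in DMSO and 100% = ciliumless bld1 mutant cells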
assay_setup: Chlamydomonas reinhardtii gravitaxis, OD600 absorbance, 2 days; at 10 µM; stronger effect = higher value
Report the value in % with no unit label.

Please review the entries below; each comes with its answer.
compound	readout_number
N[C@@H](Cc1ccc(O)c(O)c1)C(=O)O	2.49
CC[C@H](NC(=O)c1c(C)c(-c2ccccc2)nc2ccccc12)c1ccccc1	9.84
OCc1cc(C(O)CNCCCCCCOCCCCc2ccccc2)ccc1O (configuration not stated)	6.68

Here's the next entry for you.
*Q* What inhibition value was documented for this compound, COc1cc(C(=O)OCCCN2CCCN(CCCOC(=O)c3cc(OC)c(OC)c(OC)c3)CC2)cc(OC)c1OC ?
*A* 9.83

====

# key: entry, value: cell count
assay: inhibitors of TNFa-induced NFkB p65 translocation, primary screen, imaging, HUVEC, MLSMR starter and 10KST1 sets (AID 438);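 further: compound added about 3h40 before a 20 min TNFalpha stimulation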
assay_setup: HUVEC TNFa-induced p65 nuclear translocation; measured here: nuclei count (cytotoxicity indicator), at 2.08 µM
Answer with a bare number; do not write a unit.

compound	reported_endpoint	readout_number
CCOc1cc(C)c(Cl)cc1S(=O)(=O)N(C)C	cell count	682
O=C1CC(=O)N(Cc2cccs2)C(=O)N1	cell count	336
Cc1cc(NC(=O)c2ccccc2Oc2ccccc2)no1	cell count	708
COC(=O)c1nn(-c2ccc(-c3ccccc3)cc2)cc1O	cell count	281
CC1(c2ccc(OC(F)F)cc2)NC(=O)N(CC(=O)Nc2ccc3c(c2)OCO3)C1=O (stereo not drawn)	cell count	404
O=C1C2CCCN2C(c2ccc(Cl)cc2)N1c1nccs1 (stereo not drawn)	cell count	378
Cc1ccc(OCC(=O)NCCN2CCCC2)cc1	cell count	424
c1c2c(cc3sc(N4CCCCC4)nc13)OCCO2	cell count	266
CCOc1ccc(-c2nnc(N(CC)C(=O)C3CCC3)s2)cc1	cell count	440
COc1ccccc1-c1noc(-c2ccco2)n1	cell count	691

*Q* Endpoint output: cell count of CCc1ccc(NS(=O)(=O)c2cccs2)cc1 . Value?
*A* 421

*Q* // repeat for Cc1cc(C(=O)CSCc2nnc3n(CCC(C)C)c(=O)c4ccccc4n23)c(C)n1C and report
*A* 284

*Q* Another compound to check: Cc1ccccc1S(=O)(=O)Cc1ccc(C(=O)NCc2cccnc2)o1
*A* 596

*Q* Note, next up: CCOC(=O)N1CCN(C(=O)C(NS(=O)(=O)c2cccc3nsnc23)c2ccccc2)CC1 (stereo not drawn)
*A* 588

*Q* Entry O=C(c1ccc(Cl)cc1)N(Cc1cccs1)C1CCS(=O)(=O)C1 (stereo not drawn) please
*A* 376

*Q* Field entry: O=C(c1ccc(Cl)c(Cl)c1)N1CCOCC1
*A* 694

*Q* And for CCOc1cc(C2C(C#N)=C(N)OC(C)=C2C(C)=O)cc(Br)c1O (stereo not drawn) ?
*A* 235

*Q* Next compound: Cn1cccc1C(=O)NC(=O)CSc1nnc(C2CC2)n1-c1ccccc1
*A* 670

====

system_name: Muscarinic acetylcholine receptor M4 (Homo sapiens) (UniProt P08173)
Sequence (P08173 whole entry, looked up): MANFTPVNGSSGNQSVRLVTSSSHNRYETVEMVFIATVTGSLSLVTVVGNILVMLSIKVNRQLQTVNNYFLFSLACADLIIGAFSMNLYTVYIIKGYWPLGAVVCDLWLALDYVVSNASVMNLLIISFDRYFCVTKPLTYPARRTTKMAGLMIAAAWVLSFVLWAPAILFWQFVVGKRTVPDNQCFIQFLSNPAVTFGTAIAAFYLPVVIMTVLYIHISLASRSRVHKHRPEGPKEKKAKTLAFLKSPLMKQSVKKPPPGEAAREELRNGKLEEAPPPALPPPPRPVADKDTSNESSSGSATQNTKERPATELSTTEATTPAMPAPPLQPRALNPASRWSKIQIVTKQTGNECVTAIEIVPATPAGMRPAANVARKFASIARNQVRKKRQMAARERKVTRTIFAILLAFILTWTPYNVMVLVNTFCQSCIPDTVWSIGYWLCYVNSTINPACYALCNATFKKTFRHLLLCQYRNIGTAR
assay: M4-linked GIRK flux change, two-sided – cell-based, HEK293 M4/GIRK, thallium flux, BTC-AM, M4 allosteric agonist project, primary screen (AID 625);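 further: thallium influx through GIRK channels coupled to M4 in HEK293 cells with BTC-AM dye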
assay_setup: at 10 µM, actives lie on both sides
Labelling field: enter criterion met if recorded fluorescence slope is less than 0.005. Enter criterion not met if it equals or exceeds that cut-off.

Some solved entries appear below for comparison.
molecule	answer_label
COc1cccc(OCc2nc3c4cnn(-c5ccccc5)c4ncn3n2)c1	criterion not met
O=C(NCCO)C1(c2ccccc2)CCCC1	criterion not met
Nc1c(C2=NCCO2)nnn1Cc1ccccc1	criterion met
CCOc1ccc(C(CC(=O)O)NC(=O)c2ccco2)cc1OC (stereo not drawn)	criterion not met

*Q* Report whether reported fluorescence slope is lower than 0.005 (strictly) for COc1ccccc1C1c2c(oc3ccc(Cl)cc3c2=O)C(=O)N1c1cc(C)on1 (stereo not drawn)
*A* criterion met

*Q* Query CCC(c1nnnn1CCOC)N(Cc1ccc(C)cc1)Cc1cc2cc(OC)ccc2[nH]c1=O (stereo not drawn) next
*A* criterion not met

*Q* Query CCCCn1c(CN2CCN(CCO)CC2)nc2ccccc21 next
*A* criterion met

*Q* // repeat for CCc1ccccc1NC(=O)CN(c1cccc(OC)c1)S(C)(=O)=O and report
*A* criterion met

*Q* Quick one: CCn1c(NCc2ccc(N(C)C)cc2)nc2ccccc21
*A* criterion not met

*Q* Same lookup for COc1ccc2c(c1)C(=NO)c1cc(OC)ccc1-2 , please.
*A* criterion not met

*Q* Now give it for CCNCCNC(=O)c1c(O)c2ccccc2n(CC)c1=O too.
*A* criterion not met

*Q* Same question for O=C(O)CCc1ccc(-c2ccccc2)n1CC(=O)O please.
*A* criterion not met

====

assay: reduction of polyQ htt aggregates in cells – imaging, exon1htt(103Q)mCFP cells, high-content imaging, primary screen (AID 483);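 further: compound exposure lasted 3 days before fixation; percent of the per-plate median nuclei count of sample wells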
assay_setup: exon1htt(103Q)mCFP cell line, aggregate imaging, at 2 µM; measured here: cell count, toxicity
Recorded nuclei count, one value per entry.
Entry rule: numbers only, all in %.

Reference set, count: 4
substance_smiles	nuclei count [%]
Cc1cc(C(=O)Nc2cc(C)n(Cc3ccc(Cl)cc3)n2)no1	98.8
CCOC(=O)CCCn1nc(C)n2c(cc3sccc32)c1=O	119
Cc1cc(C(=O)CSCc2nnc3n(CCC(C)C)c(=O)c4ccccc4n23)c(C)n1C	94.2
CCCCN(C)Cc1c(C)[nH]c2c(Cl)cccc2c1=O	92.1

*Q* Which nuclei count value belongs to COc1cccc2c1C(=O)c1c(O)c3c(c(O)c1C2=O)C[C@@](O)(C(C)=O)C[C@@H]3O[C@H]1C[C@H](N)[C@H](O)[C@H](C)O1 ?
*A* 0.6

*Q* Also need CCCOc1ccc2nc(NC(=O)OC)[nH]c2c1 , thanks.
*A* 98.6

====

Entries and their fluorescence slope
system_name: Muscarinic acetylcholine receptor M4 (Homo sapiens)
assay: M4-linked GIRK flux change, two-sided – cell-based, HEK293 M4/GIRK, thallium flux, BTC-AM, M4 allosteric agonist project, primary screen (AID 625);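 further: thallium influx through GIRK channels coupled to M4 in HEK293 cells with BTC-AM dye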
assay_setup: at 10 µM, actives lie on both sides
Reply with the value as a number alone.

Reference set, count: 5
compound	fluorescence slope
CC(=O)Nc1ccc(S(=O)(=O)N2CCN(Cc3ccncc3)CC2)cc1	0.00451
Cc1ccc(NC(=O)N2CCC(c3nc4c(nnn4Cc4cccc(Cl)c4)c(=O)[nH]3)CC2)cc1	0.00576
COc1cc(C(=O)N2CCCC(c3nc(-c4cccs4)no3)C2)cc(OC)c1OC (configuration not stated)	0.00584
Cc1cc(C)n(-c2nc(C)nc3c2cnn3-c2ccccc2)n1	0.0087
COc1ccc(Cn2ccnc2)cc1Br	0.00733

*Q* Item: COc1ccccc1N1CCN(C(=O)CSc2nc(-c3ccccc3)cc(=O)[nH]2)CC1 Test system: Muscarinic acetylcholine receptor M4 (Homo sapiens) Read-out: fluorescence slope Value: ?
*A* 0.00621

*Q* // next record Cc1ccccc1NC(=O)C1CCC(C)(C(=O)O)C1(C)C (configuration not stated)
*A* 0.00574

*Q* Let us now turn to CC1=CC=CC2=NC(=O)CC(C)(C(=O)N(CC(=O)NC(C)C)C3CCCC3)N12 (configuration not stated)
*A* 0.00619

*Q* Next entry: Cc1nc(CNS(=O)(=O)c2ccc3c(c2)OCCO3)cs1
*A* 0.00404

*Q* Another compound to check: Cc1nnc(NC(=O)Nc2cccc(Cl)c2)s1
*A* 0.00561

*Q* Likewise for O=C1CC(c2ccco2)CC(O)=C1C=NCCN1CCNCC1 (configuration not stated) ?
*A* 0.00594

*Q* # iterate: CCCN1C2=C(C(=O)CCC2)C(c2ccc(O)c(Br)c2)C2=C1CCCC2=O
*A* 0.00464
